Measured AC50 values are reported for all entries that follow.
- TGT: Sodium channel protein type 1 subunit alpha (Rattus norvegicus)
- ASSAY_PROTOCOL: NVS_IC_rNaCh_site2: NovaScreen (NVS) Ion Channel Assay for rat Sodium Channel, Site 2 (NaCh) (AID 2283322);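 note: hit means loss of radioligand binding signal relative to DMSO so AC50 marks displacement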
Results filed as inconclusive are left out. Activity calls are given as the source filed them. Rule for the calls: active = hit-call score of the fitted dose curve at least 0.9, where 1 is the maximum; inconclusive = response in the unintended direction; inactive = score below 0.9.

Please review the following examples before continuing.
[
  {
    "SMILES_CODE": "c1ccc(C(O[C@@H]2CCCN(CCc3ccc4c(c3)OCO4)C2)c2ccccc2)cc1",
    "TGT": "Sodium channel protein type 1 subunit alpha (Rattus norvegicus)",
    "READOUT_VALUE": "0.832 µM (active)"
  },
  {
    "SMILES_CODE": "C=CCc1cc(S(=O)(=O)c2ccc(O)c(CC=C)c2)ccc1O",
    "TGT": "Sodium channel protein type 1 subunit alpha (Rattus norvegicus)",
    "READOUT_VALUE": "22.5 µM (active)"
  }
]

Now let's try a different one.
Entry Cc1nccn1-c1ccc(Sc2cccc(C3(C(N)=O)CCOCC3)c2)cc1 has what AC50? 17.7 µM (active)
